# method: yeast display, Sf9 membrane polyspecificity reagent, FACS + sequencing; frameworks hold sequencing errors
observed.property: polyreactivity (PSR sort gate)

[[record]]
sequence_chain = "QVQLVESGGGLVQAGGSLRLSCAASGFTFGANVMGWYRQAPGKERELVAAINTRGSRTYYADSVKGRFTISRDHAKNTVYLQMNRLKQEDTAVYYCAAALRKEYDYWGQGTQVTVSS"
endpoint_value = "high polyreactivity"

[[record]]
sequence_chain = "QVQLVESGGGLVQAGGSLRLSCAASGFIFGTYAMGWYIQAPGKERELVAAISTGATYYADSVKGRFTISRDNAKNTVYLQMNSLKPEDTAVYYCAAPRTYYLRYRWYLYEGDYWGQGTQVTVTS"
endpoint_value = "low polyreactivity"

[[record]]
sequence_chain = "QVQLVESGGGLVQAGGSLRLSCAASGSIFSTYAMGWYRQAHGKERELVAAISRSGGSTYYADSVKGRFTISRDNAKNTVYLQMNSLKPEDTAVYYCAKVGRRQRYDYWGQGTQVTVSS"
endpoint_value = "high polyreactivity"

[[record]]
sequence_chain = "QVQLVESGGGLVQAGGSLRLSCAASGITFLDYAMGWYRQAPGQERELVAAISKRGGSTYYADSVKGRFTISRDKAKNTVYLQMNSLKPEDTAVYYCAAYYHSVRNDYFYYWGQGTQVTVSS"
endpoint_value = "high polyreactivity"

[[record]]
sequence_chain = "QVQLVESGRGLVQAGGSLRISCAASGFTFRKYTMGWNRQAPGKERELVAAISRRGGSTYYADSVKSRFTISRDNAKNTVYLQMNSLKPEVTAVYYCATDHIPSVGVDYWGQGTQVTVSS"
endpoint_value = "high polyreactivity"

[[record]]
sequence_chain = "QVQLVESGGGLVQAGGSLRLSCAASGRTFGYYAMGWYRQAPGKEREFVAAISFRTTSTYYADSVKGRFTISRDNAKNTVYLQMNSLKPEDTAVYYCNADWYLLSTWYDYWGQGTQVTVSS"
endpoint_value = "high polyreactivity"

[[record]]
sequence_chain = "QVQLVESGGGLVQAGGSLRLSCAASGRTIRHNAMGWYRQAPGKERELVAAISRSGGSTYYADSVKGRFTISRDNAKNTVYLQMNSLKPEDTAVYYCAAGYHIIYTPEYYYWGQGTQVTVSS"
endpoint_value = "high polyreactivity"

[[record]]
sequence_chain = "QVQLVESGGGLVQAGGSLRLSCAASGRIFARNAMGWYREAPGKERELVATIRVGGGSTYYADSVKGRFTISRHNAKNTVYLQMNSLKPEDTAVYYCAVRQLYSYPGDRRGYYWGQGTQVNVSS"
endpoint_value = "low polyreactivity"

[[record]]
sequence_chain = "QVQLVESGGGLVQAGGSLRLSCAASGRTFQSYAMGWYRQAPGKERELVAAITITGGRTYYADSVKGRFTISRDNAKNTVYLQMNSLKPEDTAVYYCADYDYWGQGTQVTVSS"
endpoint_value = "low polyreactivity"

[[record]]
sequence_chain = "QVQLVESGGGLVQAGGSLRLSCAASGSTFESNAMGWNRQAPGKERDLVASISGSGGSTFYADSVKGSFTISRDNAKNTVYLQMNILKPEDTGVYYCAAYKEPYYEEYGYWGQGTQVTVSS"
endpoint_value = "low polyreactivity"

[[record]]
sequence_chain = "QVQLVESGGGLVQAGGSLRLSCAASGFTFRANAMGWYRQAPGKERELVAAISQSGGRTNYADSVKGRFTISRDNAKNTVYLQMNSLKPEDTAVYYCAAPYSAKELYYRMDYWGQGTQVTVSS"
endpoint_value = "high polyreactivity"

